Experiment: Solubility estimates at ambient temperature
Type: physicochemical
Details: organic solvent or mixture, thermodynamic from solid, Anisole, Form A (Lot 2-4), read-out: Solubility (estimate)
Property: solubility

# solubility (compound: "CC(C)n1c(=O)cc(N[C@@H](C)c2ccccc2)[nH]c1=O" ) is < 1000 µg/mL

----------
Assay: API thermodynamic solubility
Assay type: physicochemical
Settings: hexanes, organic solvent or mixture, thermodynamic from solid
Property: solubility thermodynamic

# solubility thermodynamic (molecule: "CC(C)n1c(=O)cc(N[C@@H](C)c2ccccc2)[nH]c1=O" ) is < 10 µg/mL

----------
Assay: Solubility estimates at ambient temperature
Format: physicochemical
Settings: organic solvent or mixture, thermodynamic from solid, HFIPA:water (90:10), Form A (Lot 2-4), read-out: Solubility (estimate)
Property: solubility

# solubility (molecule: "CC(C)n1c(=O)cc(N[C@@H](C)c2ccccc2)[nH]c1=O" ) is ~28 mg/mL

----------
Assay: Solubility estimates at ambient temperature
Type: physicochemical
Conditions: organic solvent or mixture, thermodynamic from solid, MeOH, Form A (Lot 2-4), read-out: Solubility (estimate)
Property: solubility

# solubility (compound: "CC(C)n1c(=O)cc(N[C@@H](C)c2ccccc2)[nH]c1=O" ) is ~2 mg/mL

----------
Experiment: API thermodynamic solubility
Type: physicochemical
Conditions: n-heptanes, organic solvent or mixture, thermodynamic from solid
Property: solubility thermodynamic

# solubility thermodynamic (compound: CC(C)n1c(=O)cc(N[C@@H](C)c2ccccc2)[nH]c1=O [mavacamten] ) is < 10 µg/mL

----------
Assay: Solubility estimates at ambient temperature
Type: physicochemical
Settings: organic solvent or mixture, thermodynamic from solid, anisole, isopropanol, MIBK, nitromethane, and toluene, read-out: solubility estimate
Experimental: Solubilities were calculated based on the total solvent used to give a solution; actual solubilities may be greater because of the volume of solvent portions utilized or a slow rate of dissolution. […] If dissolution occurred at the first aliquot, the value was reported as “>”. Solubility estimates at ambient temperature were performed in 25 solvents and solvent systems using Form A (Lot 2-4) (Table 13.3).
Property: solubility

# solubility (compound: CC(C)n1c(=O)cc(N[C@@H](C)c2ccccc2)[nH]c1=O [Form A] ) is ≤ 1 mg/mL

----------
Assay: Solubility estimates at ambient temperature
Assay type: physicochemical
Settings: organic solvent or mixture, thermodynamic from solid, THF:water (90:10), Form A (Lot 2-4), read-out: Solubility (estimate)
Property: solubility

# solubility (molecule: "CC(C)n1c(=O)cc(N[C@@H](C)c2ccccc2)[nH]c1=O" ) is ~13 mg/mL

FYI, the data here is from patent US20260207600A1.
